Kindly state MIC for each of the entries shown.
- Test system: E. faecalis ATCC 29212
- Assay: Broth microdilution MIC, ATCC strains
- Assay type: cell-based
- Details: Enterococcus faecalis, ATCC29212, E. faecalis, ATCC number not given; read-out: MIC (growth inhibition, microdilution method)
Could you give me the number in µg/mL? Just the number is fine.

For COC(=O)c1cc(-c2nnnn2C)c(C(=O)OC)s1 the molecule record lists MIC as 8

The measured MIC associated with O=C(O)c1cc(-c2nnn[nH]2)c(-c2ccc(F)cc2)s1 reads 8

Briefly, MIC measured for O=C(O)c1cc(-c2nnn[nH]2)c(C(=O)O)s1 : 8

Per the records, this molecule ( O=C(O)c1cc(-c2nn[nH]n2)cs1 ) has MIC equal to 8

---

- Test system: E. cloacae clinical isolates
- Assay: Broth microdilution MIC, clinical isolate strains (NAUTICA)
- Type: cell-based
- Details: clinical isolates, one table line per isolate; unit assumed
Quantity name: MIC, E. CLOACAE (µg/mL)
Write the number in µg/mL without appending the unit.

In plain terms, O=C(O)c1cc(-c2nnn[nH]2)c(C(=O)O)s1 has a documented MIC, E. CLOACAE of 128

Please fill in: MIC, E. CLOACAE reported for COC(=O)c1cc(-c2nnn(C)n2)c(C(=O)OC)s1 = 128

The molecule listed as O=C(O)c1cc(-c2nnn[nH]2)c(-c2ccc(F)cc2)s1 shows MIC, E. CLOACAE equal to 64

MIC, E. CLOACAE recorded for this molecule, O=C(O)c1cc(-c2nn[nH]n2)cs1 , is 16

---

- Test system: S. marcescens clinical isolates
- Assay: Broth microdilution MIC, clinical isolate strains (NAUTICA)
- Format: cell-based
- Details: Table 4B; each table row is one clinical isolate; unit assumed
Field: MIC, S. MARCESCENS. Provide a value for each of the molecules that follow.

get_value(item= CCOC(=O)c1cc(-c2nnn(C)n2)c(-c2ccc(F)cc2)s1 [DNM-125] , readout=MIC, S. MARCESCENS) returns > 16 µg/mL

Looking up COC(=O)c1sc(-c2ccc(F)cc2)cc1-c1nnn(C)n1 [DNM-144] , I see its MIC, S. MARCESCENS listed as > 8 µg/mL

For this molecule ( Cn1nnnc1-c1cc(-c2ccc(F)cc2)sc1-c1ccc(F)cc1 [DNM-133] ), measured MIC, S. MARCESCENS is > 16 µg/mL

Per the records, this molecule ( O=C(O)c1sc(-c2ccc(F)cc2)cc1-c1nnn[nH]1 [DNM-141] ) has MIC, S. MARCESCENS equal to > 16 µg/mL

Sure, the documented MIC, S. MARCESCENS for Cn1nnc(-c2cc(-c3ccc(F)cc3)sc2C(=O)O)n1 [DNM-142] is > 16 µg/mL

MIC, S. MARCESCENS in this record for Cn1nnnc1-c1cc(-c2ccc(F)cc2)sc1C(=O)O [DNM-143] : > 8 µg/mL

COC(=O)c1sc(-c2ccc(F)cc2)cc1-c1nnnn1C [DNM-145] has a reported MIC, S. MARCESCENS of > 4 µg/mL

The molecule listed as Cn1nnc(-c2cc(-c3ccc(F)cc3)sc2-c2ccc(F)cc2)n1 [DNM-132] shows MIC, S. MARCESCENS equal to > 16 µg/mL

Noted for Fc1ccc(-c2cc(-c3nnn[nH]3)c(-c3ccc(F)cc3)s2)cc1 [DNM-131] : its MIC, S. MARCESCENS reads > 32 µg/mL

The measured values listed here are drawn from patent US8835476B2.
